What IC50 was measured for each of the following?
Molecular target: CDK2/Cyclin E1 (Homo sapiens, UniProt P24941)
Construct: purchased Eurofins 14-475
Assay: ADPGLO (CDK2/E1-37C) ADP-Glo Luminescent Kinase Assay
Type: biochemical
Settings: 0.18 nM CDK2/Cyclin E1, 100 μM ATP, 1.5 μM Histone H1, 37° C., 60 min preincubation

// query Please look up its IC50: CC1(C)C[C@@H]1C(=O)N1CC2(C1)C(=O)N(Cc1cncs1)CC2c1nnc(C(F)(F)c2ccc(Cl)c(Cl)c2)o1 (some centres unmarked) [Compound I-6]
// result > 100 µM

// query May I ask what IC50 has been recorded for C[C@@H](OCC1CCCCC1)[C@H](NC(=O)[C@@H]1CN(C(=O)c2cncs2)CC12CCOCC2)C(=O)N1CCC(c2ccc(C(=O)O)cc2)CC1 (single isomer, unassigned) [I-4 2nd] ?
// result > 10 µM

// query For the compound C[C@@H](OCC1CCCCC1)[C@H](NC(=O)C1CN(C(=O)c2cncs2)CC12CCN(C(=O)[C@H]1CC1(C)C)CC2)C(=O)N1CCC(c2ccc(C(=O)O)cc2)CC1 (some centres unmarked) [Compound I-41] , what IC50 is on record?
// result ≤ 0.5 µM

// query Request the reported IC50 associated with C[C@@H](OCC1CCCCC1)[C@H](NC(=O)[C@@H]1CN(Cc2cnn(Cc3ccccc3)c2)C(=O)C12CN(C(=O)[C@H]1CC1(C)C)C2)C(=O)N1CCC(c2nccs2)CC1 [Compound I-5]
// result ≤ 0.5 µM

// query Bench note: what IC50 did C[C@@H](OCC1CCCCC1)[C@H](NC(=O)[C@H]1CN(C(=O)c2cncs2)CC12CCOCC2)C(=O)N1CCC(c2ccc(C(=O)O)cc2)CC1 (single isomer, unassigned) [I-4 1st] show?
// result > 10 µM

====

Molecular target: CDK2/Cyclin E1 (Homo sapiens)
Construct: purchased Eurofins 14-475
Assay: CDK2/Cyclin E1 Caliper LabChip EZ Reader mobility shift assay
Type: biochemical
Conditions: 2.5 nM CDK2/Cyclin E1, 100 μM ATP, 1.5 μM fluorescent peptide, 30 min preincubation; read-out: Caliper Assay (CDK2/CCNE1): IC50
measured metric: IC50

// query Under CDK2/Cyclin E1 (Homo sapiens): IC50 value of CC(=O)N[C@@H](C(=O)NC1CN(C(=O)c2cnn(Cc3ccccc3)c2)CC12CN(C(=O)[C@H]1CC1(C)C)C2)[C@H](C)OCC1CCCCC1 (stereo partly drawn) ?
// result 0.1 to 1 µM

// query So what IC50 did C[C@@H](OCC1CCCCC1)[C@H](NC(=O)[C@H]1CCOC12CN(C(=O)[C@H]1CC1(C)C)C2)C(=O)N1CCC[C@@H](N)C1 (single isomer, unassigned) get with CDK2/Cyclin E1 (Homo sapiens)?
// result > 10 µM

// query Quick check: IC50 on CDK2/Cyclin E1 (Homo sapiens), item CN(C(=O)C1CC2(C1)CN(C(=O)c1cncs1)CC2c1nnc(C(F)(F)c2ccc(Cl)c(Cl)c2)o1)C1CC1 (racemic) ?
// result > 10 µM

// query Quick check: IC50 on CDK2/Cyclin E1 (Homo sapiens), item COC[C@H]1CCCN(C(=O)[C@@H](NC(=O)[C@@H]2CN(C(=O)c3cncs3)CC23CN([S+]([O-])C(C)(C)C)C3)[C@@H](C)OCC2CCCCC2)C1 (stereo partly drawn) ?
// result 1 to 10 µM

// query So what IC50 did O=C(c1cnccn1)N1CC(c2nnc(C(F)(F)c3ccc(Cl)c(Cl)c3)o2)C2(CCOCC2)C1 (stereo not drawn) get with CDK2/Cyclin E1 (Homo sapiens)?
// result > 10 µM

// query Param readout = IC50; param system = CDK2/Cyclin E1 (Homo sapiens); param query = CC1(C)C[C@@H]1C(=O)N1CC2(CN(C(=O)c3cnn(Cc4ccccc4)c3)CC2C#N)C1 (stereo partly drawn) ; response: value
// result > 10 µM

// query Form: Entry = CC1(C)C[C@@H]1C(=O)N1CC2(C1)C(=O)N(Cc1cncs1)CC2c1nnc(C(F)(F)c2ccc(Cl)c(Cl)c2)o1 (stereo partly drawn) | System = CDK2/Cyclin E1 (Homo sapiens) | IC50 = ____
// result > 10 µM

// query Lab note: need IC50 with CDK2/Cyclin E1 (Homo sapiens) for entry O=C(c1cncs1)N1CC(c2nnc(C(F)(F)c3ccc(Cl)c(Cl)c3)o2)C2(CCNCC2)C1 (stereo not drawn) , please look it up.
// result > 10 µM

// query Lab request: please report IC50 under test system CDK2/Cyclin E1 (Homo sapiens) for C[C@@H](OCC1CCCCC1)[C@H](NC(=O)[C@@H]1CCOC12CN(C(=O)[C@H]1CC1(C)C)C2)C(=O)N1CCC[C@@H](N)C1 (single isomer, unassigned)
// result > 10 µM

// query Look up IC50 with CDK2/Cyclin E1 (Homo sapiens) for this molecule: CNC(=O)[C@@H](NC(=O)[C@@H]1CN(C(=O)c2cnn(Cc3ccccc3)c2)CC12CN(C(=O)N(C)C1CC1)C2)[C@@H](C)OCC1CCCCC1
// result 0.1 to 1 µM

// query Form: Entry = C[C@@H](OCC1CCCCC1)[C@H](NC(=O)[C@@H]1CNCC12CN(C(=O)[C@H]1CC1(C)C)C2)C(=O)N1CCOCC1 | System = CDK2/Cyclin E1 (Homo sapiens) | IC50 = ____
// result > 10 µM

// query Query IC50 on CDK2/Cyclin E1 (Homo sapiens) for CC(=O)N1C[C@@H](C(=O)N[C@H](C(=O)N2CCOCC2)[C@@H](C)OCC2CCCCC2)C2(C1)CN(C(=O)[C@H]1CC1(C)C)C2
// result > 10 µM
